Data credit: patent US20240417405A1

# Tested on: MOLM14 cells
# Test Method Notes: Proliferation assay, spheroid-like growth, MOLM14 (MLL-AF9 rearranged)
# Assay type: cell-based, human
# Run Conditions: Homo sapiens, MOLM-14, 192 h, 8 days, confluence as measure of spheroid size, read-out: spheroid assay_OneTime MOLM14 IC50
Labelling: IC50 reported below 40 nM becomes 1.0; at or above becomes 0.0.

Reference set (2 entries):
CC(C)[C@@H]([C@H]1C[C@@H](N2CCC3(COC3)C2)C1)N1CC2(CCN(c3ncnnc3Oc3ccc(F)cc3-c3cccnc3C3CC3)C2)C1 (single isomer, unassigned)	1.0
Cc1ncc(-c2cc(F)ccc2Oc2nncnc2N2CCC3(C2)CN([C@@H](C(C)C)[C@H]2C[C@@H](N4CC[C@@H](NC(=O)C5CC5)C4)C2)C3)c(C2CC2)n1	1.0

Lookup: State whether 40 nM exceeds IC50 recorded for CC(C)[C@H]([C@H]1C[C@@H](N2CCC3(CCO3)C2)C1)N1CC2(CCN(c3ncnnc3Oc3ccc(F)cc3-c3nnccc3C3CC3)C2)C1 (single isomer, unassigned) .
Found: 0.0

Lookup: State whether 40 nM exceeds IC50 recorded for CC(C)[C@H]([C@H]1C[C@@H](N2CC[C@@](C)(O)C2)C1)N1CC2(CCN(c3ncnnc3Oc3ccc(F)cc3-c3cncnc3C3CC3)C2)C1 (single isomer, unassigned) .
Found: 1.0

Lookup: State whether 40 nM exceeds IC50 recorded for CC(=O)Nc1nnc(N[C@H]2C[C@@H]([C@@H](C(C)C)N3CC4(CCN(c5ncnnc5Oc5ccc(F)cc5-c5cncnc5C5CC5)C4)C3)C2)s1 (single isomer, unassigned) .
Found: 1.0

Lookup: State whether 40 nM exceeds IC50 recorded for CC(C)[C@H]([C@H]1C[C@@H](N2CCC3(CNC(=O)O3)C2)C1)N1CC2(CCN(c3ncnnc3Oc3ccc(F)cc3-c3nnccc3C3CC3)C2)C1 (single isomer, unassigned) .
Found: 1.0

Lookup: State whether 40 nM exceeds IC50 recorded for CC(C)[C@H]([C@H]1C[C@@H](N2C[C@H](O)C3(CC3)C2)C1)N1CC2(CCN(c3ncnnc3Oc3ccc(F)cc3-c3cncnc3C3CC3)C2)C1 (single isomer, unassigned) .
Found: 1.0
